Each recorded value in this set is attributed to paper PMC10108347.

Molecular target: cIAP2 (Homo sapiens)
Sequence (Q13489 whole entry): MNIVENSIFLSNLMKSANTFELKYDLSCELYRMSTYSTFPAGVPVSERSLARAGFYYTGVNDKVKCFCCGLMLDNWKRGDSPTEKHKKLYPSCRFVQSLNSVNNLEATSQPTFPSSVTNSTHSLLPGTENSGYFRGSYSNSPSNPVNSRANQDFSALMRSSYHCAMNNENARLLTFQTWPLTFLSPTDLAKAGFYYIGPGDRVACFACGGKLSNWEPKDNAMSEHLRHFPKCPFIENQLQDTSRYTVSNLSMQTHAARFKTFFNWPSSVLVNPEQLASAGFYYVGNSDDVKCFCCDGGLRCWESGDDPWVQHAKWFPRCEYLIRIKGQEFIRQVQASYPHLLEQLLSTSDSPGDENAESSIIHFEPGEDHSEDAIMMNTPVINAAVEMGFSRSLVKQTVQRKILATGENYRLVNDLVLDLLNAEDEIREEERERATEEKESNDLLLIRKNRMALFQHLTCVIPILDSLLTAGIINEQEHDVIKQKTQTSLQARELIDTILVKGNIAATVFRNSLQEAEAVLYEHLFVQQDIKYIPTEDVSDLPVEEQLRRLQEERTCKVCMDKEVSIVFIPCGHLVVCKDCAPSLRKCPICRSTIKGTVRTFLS
Test: Immunoblotting (western blot) quantification of cIAP2 levels in MM.1S cells
Conditions: MM.1S cells, 16 h, western blot, 0.1 or 1 μM
*1 amine or outer side, *2 acyl side, *3 side chain or, on linkers, in order; H or OH if unused. Where a SMILES comes first, the peptide text is derived from it. Bridges are numbered along the chain shown (N, C = ends). Roman numbers before positions name the chains, in order. [ ]: non-standard residue; d: D form. Hexamethylenediamine = C(CCCN[*:2])CCN[*:1]; dDip = N[C@@H](C(=O)O)C(c1ccccc1)c1ccccc1; Chg = N[C@H](C(=O)O)C1CCCCC1; dNMeA = CN[C@H](C)C(=O)O
property: cIAP2 degradation (in words)

CC[C@H](NC(=O)[C@H](C)NC)C(=O)N1C[C@@H](O)C[C@H]1Cc1c(-c2[nH]c3cc(F)ccc3c2C[C@@H]2C[C@H](O)CN2C(=O)[C@H](CC)NC(=O)[C@H](C)NC)[nH]c2cc(F)ccc12 [birinapant, reference compound]: substantial degradation
CN[C@@H](C)C(=O)N[C@@H](C(=O)N1CCC[C@H]1C(=O)N[C@@H]1c2ccccc2C[C@@H]1OCC#CC#CCO[C@H]1Cc2ccccc2[C@H]1NC(=O)[C@@H]1CCCN1C(=O)[C@H](NC(=O)[C@H](C)NC)C1CCCCC1)C1CCCCC1 [AZD5582, reference compound]: substantial degradation
CN[C@H](C)C(=O)N[C@H](C(=O)N1CCC[C@@H]1C(=O)N[C@@H](C(=O)NCCCCCCNC(=O)[C@H](NC(=O)[C@H]1CCCN1C(=O)[C@@H](NC(=O)[C@@H](C)NC)C1CCCCC1)C(c1ccccc1)c1ccccc1)C(c1ccccc1)c1ccccc1)C1CCCCC1 [BV6, reference compound] (I: H-[dNMeA][Chg][dP][dDip] / II: H-[dNMeA][Chg][dP][dDip]; linker I:C-II:C via Hexamethylenediamine): substantial degradation

###

remaining activity at 0.1 µM reference
Target: VHL30 (Homo sapiens)
Sequence (P40337 whole entry): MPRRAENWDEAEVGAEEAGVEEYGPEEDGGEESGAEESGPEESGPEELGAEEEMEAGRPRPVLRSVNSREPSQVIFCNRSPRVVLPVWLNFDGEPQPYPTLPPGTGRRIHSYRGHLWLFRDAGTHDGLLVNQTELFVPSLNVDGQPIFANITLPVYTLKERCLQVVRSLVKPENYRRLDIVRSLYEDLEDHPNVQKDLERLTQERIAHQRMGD
Assay: Immunoblotting (western blot) quantification of VHL30 levels in MM.1S cells
Settings: MM1.S, 16 h, read-out: %remaining protein VHL30
The answer is to be given in %; state only the numeric part.

IN: Entry CN[C@@H](C)C(=O)N[C@H](C(=O)N1C[C@@H](Oc2cccc(OCCOCCOCCOc3cc(-c4scnc4C)ccc3CNC(=O)[C@@H]3C[C@@H](O)CN3C(=O)[C@H](C(C)C)N3Cc4ccccc4C3=O)c2)C[C@H]1C(=O)N[C@@H]1CCCc2ccccc21)C1CCCCC1 needs its remaining activity at 0.1 µM filled in; supply it.
OUT: 51

###

Target: UniProt:Q96SW2
Sequence (Q96SW2 whole entry): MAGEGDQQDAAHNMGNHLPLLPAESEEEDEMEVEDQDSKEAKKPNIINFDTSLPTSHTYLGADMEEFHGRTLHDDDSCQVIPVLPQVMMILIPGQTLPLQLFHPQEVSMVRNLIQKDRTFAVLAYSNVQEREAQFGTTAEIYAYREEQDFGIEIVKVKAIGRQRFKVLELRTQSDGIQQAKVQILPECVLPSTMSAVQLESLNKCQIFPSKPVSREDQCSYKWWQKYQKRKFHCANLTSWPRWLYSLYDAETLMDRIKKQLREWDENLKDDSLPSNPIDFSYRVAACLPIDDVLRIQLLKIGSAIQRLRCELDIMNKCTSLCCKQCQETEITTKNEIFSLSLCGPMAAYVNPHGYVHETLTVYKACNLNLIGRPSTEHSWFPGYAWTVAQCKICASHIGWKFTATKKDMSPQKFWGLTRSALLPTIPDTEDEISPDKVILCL
Test: Immunoblotting (western blot) quantification of CRBN levels in MM.1S cells
Conditions: MM1.S, 16 h, read-out: %remaining protein CRBN
property: remaining activity at 0.1 µM (%)
The answer is to be given in %; state only the numeric part.

IN: Entry CN[C@@H](C)C(=O)N[C@H](C(=O)N1C[C@@H](Oc2cccc(OCCOCCOCCNc3cccc4c3C(=O)N(C3CCC(=O)NC3=O)C4=O)c2)C[C@H]1C(=O)N[C@@H]1CCCc2ccccc21)C1CCCCC1 (stereo partly shown) needs its remaining activity at 0.1 µM filled in; supply it.
OUT: 85

IN: Entry CN[C@@H](C)C(=O)N[C@H](C(=O)N1C[C@@H](Oc2cccc(OCCOCCCCCCOCCCCCCNc3cccc4c3C(=O)N(C3CCC(=O)NC3=O)C4=O)c2)C[C@H]1C(=O)N[C@@H]1CCCc2ccccc21)C1CCCCC1 (stereo partly shown) needs its remaining activity at 0.1 µM filled in; supply it.
OUT: 91

IN: Entry CN[C@@H](C)C(=O)N[C@H](C(=O)N1C[C@@H](Oc2cccc(OCCOCCOCCOCCNc3cccc4c3C(=O)N(C3CCC(=O)NC3=O)C4=O)c2)C[C@H]1C(=O)N[C@@H]1CCCc2ccccc21)C1CCCCC1 (stereo partly shown) needs its remaining activity at 0.1 µM filled in; supply it.
OUT: 86

IN: Entry CN[C@@H](C)C(=O)N[C@H](C(=O)N1C[C@@H](Oc2cccc(OCCCCCCOCCCCCCOCCCCCCNc3cccc4c3C(=O)N(C3CCC(=O)NC3=O)C4=O)c2)C[C@H]1C(=O)N[C@@H]1CCCc2ccccc21)C1CCCCC1 (stereo partly shown) needs its remaining activity at 0.1 µM filled in; supply it.
OUT: 95

###

fraction unbound at 0.5 mg/mL reference
Target: plasma protein (HSA column) (Homo sapiens)
Construct: purchased
Sequence (P02768 25-609): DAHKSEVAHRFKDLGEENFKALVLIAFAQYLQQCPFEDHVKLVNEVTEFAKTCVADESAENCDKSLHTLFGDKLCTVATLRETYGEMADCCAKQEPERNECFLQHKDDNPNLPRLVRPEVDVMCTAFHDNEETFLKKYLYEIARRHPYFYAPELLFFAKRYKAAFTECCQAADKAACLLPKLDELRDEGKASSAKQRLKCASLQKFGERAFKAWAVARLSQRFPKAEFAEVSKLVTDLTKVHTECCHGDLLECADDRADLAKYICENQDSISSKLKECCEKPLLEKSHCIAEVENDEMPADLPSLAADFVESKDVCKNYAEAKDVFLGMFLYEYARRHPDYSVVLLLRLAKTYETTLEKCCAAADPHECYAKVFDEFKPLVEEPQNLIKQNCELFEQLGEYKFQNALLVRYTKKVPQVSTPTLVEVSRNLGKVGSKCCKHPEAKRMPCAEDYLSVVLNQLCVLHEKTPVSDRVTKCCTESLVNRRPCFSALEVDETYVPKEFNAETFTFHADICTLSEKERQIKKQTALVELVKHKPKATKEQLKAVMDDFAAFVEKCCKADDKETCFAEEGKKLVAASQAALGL
Assay: Plasma protein binding estimated by HPLC on a […] HSA column
Format: in vitro ADME
Conditions: CHIRALPAK HSA column (50 × 3 mm, 5 μm), estimated by an HPLC-based method, read-out: PPB (plasma protein binding) (converted)
Please respond with just the number, no unit label.

# count of solved cases: 5
CN[C@@H](C)C(=O)N[C@@H](C(=O)N1CCC[C@H]1C(=O)N[C@@H]1c2ccccc2C[C@@H]1OCC#CC#CCO[C@H]1Cc2ccccc2[C@H]1NC(=O)[C@@H]1CCCN1C(=O)[C@H](NC(=O)[C@H](C)NC)C1CCCCC1)C1CCCCC1 [AZD5582, reference compound]: 0.06
CN[C@@H](C)C(=O)N[C@H](C(=O)N1C[C@@H](Oc2cccc(OCCOCCOCCOCCNc3cccc4c3C(=O)N(C3CCC(=O)NC3=O)C4=O)c2)C[C@H]1C(=O)N[C@@H]1CCCc2ccccc21)C1CCCCC1 (stereo partly shown): 0.06
CN[C@@H](C)C(=O)N[C@H](C(=O)N1C[C@@H](Oc2cccc(OCCOCCOCCOc3cc(-c4scnc4C)ccc3CNC(=O)[C@@H]3C[C@@H](O)CN3C(=O)[C@H](C(C)C)N3Cc4ccccc4C3=O)c2)C[C@H]1C(=O)N[C@@H]1CCCc2ccccc21)C1CCCCC1: 0.05
CN[C@@H](C)C(=O)N[C@H](C(=O)N1C[C@@H](Oc2cccc(OCCOCCOCCOCCOc3cc(-c4scnc4C)ccc3CNC(=O)[C@@H]3C[C@@H](O)CN3C(=O)[C@H](C(C)C)N3Cc4ccccc4C3=O)c2)C[C@H]1C(=O)N[C@@H]1CCCc2ccccc21)C1CCCCC1: 0.05
CN[C@@H](C)C(=O)N[C@H](C(=O)N1C[C@@H](Oc2cccc(OCCCCCOc3cc(-c4scnc4C)ccc3CNC(=O)[C@@H]3C[C@@H](O)CN3C(=O)[C@H](C(C)C)N3Cc4ccccc4C3=O)c2)C[C@H]1C(=O)N[C@@H]1CCCc2ccccc21)C1CCCCC1: 0.04

IN: Entry CN[C@@H](C)C(=O)N[C@H](C(=O)N1C[C@@H](Oc2cccc(OCCCCOCCCCOc3cc(-c4scnc4C)ccc3CNC(=O)[C@@H]3C[C@@H](O)CN3C(=O)[C@H](C(C)C)N3Cc4ccccc4C3=O)c2)C[C@H]1C(=O)N[C@@H]1CCCc2ccccc21)C1CCCCC1 needs its fraction unbound at 0.5 mg/mL filled in; supply it.
OUT: 0.04

IN: Entry CN[C@@H](C)C(=O)N[C@H](C(=O)N1C[C@@H](Oc2ccccc2)C[C@H]1C(=O)N[C@@H]1CCCc2ccccc21)C1CCCCC1 [CST530, reference compound] needs its fraction unbound at 0.5 mg/mL filled in; supply it.
OUT: 0.06

###

chromatographic logD reference
Test: Log D7.4 measurement by chromatographic (fast-gradient HPLC) method
Details: pH 7.4
Please respond with just the number, no unit label.

IN: Entry CN[C@@H](C)C(=O)N[C@H](C(=O)N1C[C@@H](Oc2cccc(OCCOCCCCCCOCCCCCCNc3cccc4c3C(=O)N(C3CCC(=O)N(C)C3=O)C4=O)c2)C[C@H]1C(=O)N[C@@H]1CCCc2ccccc21)C1CCCCC1 (some centres unmarked) needs its chromatographic logD filled in; supply it.
OUT: 6

IN: Entry CN[C@@H](C)C(=O)N[C@H](C(=O)N1C[C@@H](Oc2cccc(OCCCCCCOCCCCCOCCCCCOc3cc(-c4scnc4C)ccc3CNC(=O)[C@@H]3C[C@@H](O)CN3C(=O)[C@H](C(C)C)N3Cc4ccccc4C3=O)c2)C[C@H]1C(=O)N[C@@H]1CCCc2ccccc21)C1CCCCC1 needs its chromatographic logD filled in; supply it.
OUT: 5.6

###

Target: cIAP1 (Homo sapiens, UniProt Q13490)
Sequence (Q13490 whole entry): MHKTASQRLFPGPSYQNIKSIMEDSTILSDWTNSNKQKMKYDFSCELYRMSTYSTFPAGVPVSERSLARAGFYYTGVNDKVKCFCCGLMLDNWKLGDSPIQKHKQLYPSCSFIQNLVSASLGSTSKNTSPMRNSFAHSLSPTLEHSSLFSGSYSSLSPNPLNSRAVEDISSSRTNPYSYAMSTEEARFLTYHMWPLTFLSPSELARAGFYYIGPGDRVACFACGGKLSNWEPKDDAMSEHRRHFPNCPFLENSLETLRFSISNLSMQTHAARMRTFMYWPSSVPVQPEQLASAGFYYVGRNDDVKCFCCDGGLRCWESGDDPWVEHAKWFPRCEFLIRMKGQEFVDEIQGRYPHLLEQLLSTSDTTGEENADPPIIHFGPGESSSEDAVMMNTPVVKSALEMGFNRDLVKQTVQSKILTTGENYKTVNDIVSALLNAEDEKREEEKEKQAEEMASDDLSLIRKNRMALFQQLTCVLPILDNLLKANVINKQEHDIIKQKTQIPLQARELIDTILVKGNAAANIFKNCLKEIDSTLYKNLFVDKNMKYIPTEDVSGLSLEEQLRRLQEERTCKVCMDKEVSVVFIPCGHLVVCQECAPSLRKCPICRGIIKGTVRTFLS
Assay: Immunoblotting (western blot) quantification of cIAP1 levels in MM.1S cells
Details: MM1.S, 16 h, read-out: %remaining protein cIAP1
property: remaining activity at 0.1 µM (%)
The answer is to be given in %; state only the numeric part.

CN[C@@H](C)C(=O)N[C@H](C(=O)N1C[C@@H](Oc2cccc(OCCCCCCOCCCCCCOCCOc3cc(-c4scnc4C)ccc3CNC(=O)[C@@H]3C[C@@H](O)CN3C(=O)[C@H](C(C)C)N3Cc4ccccc4C3=O)c2)C[C@H]1C(=O)N[C@@H]1CCCc2ccccc21)C1CCCCC1: 3
CN[C@@H](C)C(=O)N[C@H](C(=O)N1C[C@@H](Oc2cccc(OCCCCCCOCCCCCCOCC(=O)N[C@H](C(=O)N3C[C@H](O)C[C@H]3C(=O)NCc3ccc(-c4scnc4C)cc3)C(C)(C)C)c2)C[C@H]1C(=O)N[C@@H]1CCCc2ccccc21)C1CCCCC1: 2
CN[C@@H](C)C(=O)N[C@H](C(=O)N1C[C@@H](Oc2cccc(OCCCCCCOCCCCCOCCCCCOc3cc(-c4scnc4C)ccc3CNC(=O)[C@@H]3C[C@@H](O)CN3C(=O)[C@H](C(C)C)N3Cc4ccccc4C3=O)c2)C[C@H]1C(=O)N[C@@H]1CCCc2ccccc21)C1CCCCC1: 5

For the next question, use this compound.
IN: Entry CN[C@@H](C)C(=O)N[C@H](C(=O)N1C[C@@H](Oc2cccc(OCCOCCCCCCOCCCCCCNc3cccc4c3C(=O)N(C3CCC(=O)NC3=O)C4=O)c2)C[C@H]1C(=O)N[C@@H]1CCCc2ccccc21)C1CCCCC1 (stereo partly shown) needs its remaining activity at 0.1 µM filled in; supply it.
OUT: 5
